biological target: Broad substrate specificity ATP-binding cassette transporter ABCG2 (Homo sapiens, UniProt Q9UNQ0); experiment: Inhibition of c-terminal GFP-tagged human ABCG2 expressed in MDCK2 cells preincubated for 30 mins before Hoechst 33342 addition by Hoechst 33342 accumulation assay; assay type: cell-based
Reported property: IC50 (nM)

| Smiles data | U | IC50 |
| --- | --- | --- |
| O=C(Nc1ccccc1C(=O)Nc1ccc(CCN2CCc3ccccc3C2)cc1)c1cnc2ccccc2c1 | nM | 704 |
| CSc1cccc(Nc2nc(-c3ccccc3)nc3ccccc23)c1 | nM | 1190 |

P: N#Cc1ccc(Nc2cc(-c3ccccc3)nc3ccccc23)cc1
Q: Cc1ccc(Nc2nc(-c3ccccc3)nc3ccccc23)cc1
Qu. Hey, between P and Q which has a smaller measured IC50? Refer to your chosen entry by its label in the reply.
Ans. P
(P: 846 nM, Q: 1480 nM)

---

molecular target: ATP-dependent translocase ABCB1 (Homo sapiens); test: Inhibition of ABCB1 in human A2780adr cells preincubated for 30 mins before calcein AM addition by calcein AM assay
Sequence (P08183 whole entry): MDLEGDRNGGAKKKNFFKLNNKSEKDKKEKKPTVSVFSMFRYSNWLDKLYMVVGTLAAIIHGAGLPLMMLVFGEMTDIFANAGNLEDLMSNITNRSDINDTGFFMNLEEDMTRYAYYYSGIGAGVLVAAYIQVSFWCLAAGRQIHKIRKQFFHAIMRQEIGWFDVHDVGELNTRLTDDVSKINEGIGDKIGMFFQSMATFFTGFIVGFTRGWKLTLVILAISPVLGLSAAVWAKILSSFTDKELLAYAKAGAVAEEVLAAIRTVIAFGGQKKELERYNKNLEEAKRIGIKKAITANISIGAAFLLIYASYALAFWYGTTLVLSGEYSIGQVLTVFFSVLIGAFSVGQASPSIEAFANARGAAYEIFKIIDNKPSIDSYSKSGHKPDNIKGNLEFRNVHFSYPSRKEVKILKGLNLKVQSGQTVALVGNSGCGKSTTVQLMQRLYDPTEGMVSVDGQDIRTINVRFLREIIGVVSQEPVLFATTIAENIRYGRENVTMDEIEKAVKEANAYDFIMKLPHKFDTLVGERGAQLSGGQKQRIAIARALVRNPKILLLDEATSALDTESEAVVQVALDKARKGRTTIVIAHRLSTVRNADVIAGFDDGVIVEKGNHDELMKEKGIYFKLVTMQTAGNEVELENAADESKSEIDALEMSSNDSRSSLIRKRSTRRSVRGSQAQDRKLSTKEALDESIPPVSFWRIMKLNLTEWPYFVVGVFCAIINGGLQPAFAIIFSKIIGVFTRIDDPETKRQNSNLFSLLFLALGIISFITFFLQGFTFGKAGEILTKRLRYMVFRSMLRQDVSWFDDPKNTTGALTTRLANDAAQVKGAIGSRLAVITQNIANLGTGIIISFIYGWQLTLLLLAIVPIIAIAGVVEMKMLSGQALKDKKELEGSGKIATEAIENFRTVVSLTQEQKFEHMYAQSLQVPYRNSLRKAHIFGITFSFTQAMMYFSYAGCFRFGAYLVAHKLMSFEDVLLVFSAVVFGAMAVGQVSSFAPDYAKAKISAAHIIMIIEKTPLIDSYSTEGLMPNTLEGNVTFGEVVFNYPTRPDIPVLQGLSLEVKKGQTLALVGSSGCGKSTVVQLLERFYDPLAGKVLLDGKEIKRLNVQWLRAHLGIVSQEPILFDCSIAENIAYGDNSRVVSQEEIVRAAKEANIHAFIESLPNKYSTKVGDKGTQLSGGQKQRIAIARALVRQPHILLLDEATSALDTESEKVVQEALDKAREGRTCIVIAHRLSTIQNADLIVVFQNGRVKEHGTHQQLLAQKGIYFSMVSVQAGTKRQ
Reported property: IC50 (nM)

# annotated cases, reported IC50 shown
| Smiles data | IC50, nM |
| --- | --- |
| Cc1cccc(Nc2nc(-c3ccccc3)nc3ccccc23)c1 | 3000 |
| N#Cc1ccc(Nc2cc(-c3ccccc3)nc3ccccc23)cc1 | 4740 |
| COc1ccc(Nc2nc(-c3ccccc3)nc3ccccc23)cc1OC | 1860 |
| COc1cccc(Nc2cc(-c3ccccc3)nc3ccccc23)c1 | 2780 |

a: CC(=O)Nc1cccc(Nc2cc(-c3ccccc3)nc3ccccc23)c1
b: CSc1cccc(Nc2cc(-c3ccccc3)nc3ccccc23)c1
Qu. Which value of IC50 is greater, the one for a or the one for b ? Refer to your chosen entry by its label in the reply.
Ans. b
(b: 1420 nM, a: 660 nM)

---

molecular target: ABCC1 (Homo sapiens, UniProt P33527); test: Inhibition of ABCC1 in human H69AR cells at 10 uM preincubated for 30 mins before calcein AM addition by calcein AM assay relative to CsA; assay type: cell-based; details: probe calcein AM
Sequence (P33527 whole entry): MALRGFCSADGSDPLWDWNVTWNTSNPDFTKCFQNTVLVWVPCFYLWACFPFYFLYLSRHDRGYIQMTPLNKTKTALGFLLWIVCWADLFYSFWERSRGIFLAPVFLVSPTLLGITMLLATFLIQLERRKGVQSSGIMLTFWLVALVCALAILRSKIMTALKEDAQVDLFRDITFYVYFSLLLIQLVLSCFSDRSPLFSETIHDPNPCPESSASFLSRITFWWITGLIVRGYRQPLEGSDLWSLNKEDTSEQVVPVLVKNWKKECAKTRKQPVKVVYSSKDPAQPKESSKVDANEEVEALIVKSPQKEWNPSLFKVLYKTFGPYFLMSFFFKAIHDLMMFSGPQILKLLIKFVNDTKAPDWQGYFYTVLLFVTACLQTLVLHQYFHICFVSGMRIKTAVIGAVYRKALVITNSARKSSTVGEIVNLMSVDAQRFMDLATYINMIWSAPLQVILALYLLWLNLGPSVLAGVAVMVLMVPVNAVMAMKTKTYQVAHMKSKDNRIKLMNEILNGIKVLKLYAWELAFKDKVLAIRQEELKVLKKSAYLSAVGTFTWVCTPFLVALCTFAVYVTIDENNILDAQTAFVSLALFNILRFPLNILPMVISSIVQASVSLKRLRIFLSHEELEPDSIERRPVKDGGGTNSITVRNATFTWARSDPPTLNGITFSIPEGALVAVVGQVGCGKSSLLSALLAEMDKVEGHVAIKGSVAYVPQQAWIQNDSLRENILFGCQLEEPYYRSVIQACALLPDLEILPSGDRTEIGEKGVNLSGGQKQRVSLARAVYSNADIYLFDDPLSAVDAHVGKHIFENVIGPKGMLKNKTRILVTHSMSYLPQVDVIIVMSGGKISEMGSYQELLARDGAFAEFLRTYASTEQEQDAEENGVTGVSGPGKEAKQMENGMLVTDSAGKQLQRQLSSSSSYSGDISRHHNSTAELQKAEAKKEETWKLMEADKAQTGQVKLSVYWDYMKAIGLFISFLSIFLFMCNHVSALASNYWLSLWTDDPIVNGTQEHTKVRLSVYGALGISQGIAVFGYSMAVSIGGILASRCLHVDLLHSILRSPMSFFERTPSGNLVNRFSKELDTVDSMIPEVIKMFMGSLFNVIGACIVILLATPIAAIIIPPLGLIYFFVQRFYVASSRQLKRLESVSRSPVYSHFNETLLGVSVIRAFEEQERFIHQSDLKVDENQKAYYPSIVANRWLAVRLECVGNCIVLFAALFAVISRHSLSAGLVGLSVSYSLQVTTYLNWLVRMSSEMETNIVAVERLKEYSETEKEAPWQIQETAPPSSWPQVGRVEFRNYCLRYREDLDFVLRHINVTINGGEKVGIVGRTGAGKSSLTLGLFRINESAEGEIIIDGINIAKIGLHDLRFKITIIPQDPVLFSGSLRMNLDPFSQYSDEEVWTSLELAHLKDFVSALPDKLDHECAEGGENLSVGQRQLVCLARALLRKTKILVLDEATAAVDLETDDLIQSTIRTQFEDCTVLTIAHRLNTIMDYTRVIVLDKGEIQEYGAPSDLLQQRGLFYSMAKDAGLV
Entries and their inhibition at 10 µM values follow.

# annotated cases, reported inhibition at 10 µM shown
| Smiles data | inhibition at 10 µM |
| --- | --- |
| CSc1cccc(Nc2cc(-c3ccccc3)nc3ccccc23)c1 | > 25% |
| O=C(O)c1ccc(Nc2nc(-c3ccccc3)nc3ccccc23)cc1 | > 25% |
| COC(=O)c1ccc(Nc2nc(-c3ccccc3)nc3ccccc23)cc1 | > 25% |
| CSc1cccc(Nc2nc(-c3ccccc3)nc3ccccc23)c1 | > 25% |

Qu. Give ABCC1 (Homo sapiens, UniProt P33527) inhibition at 10 µM for CC(=O)Nc1cccc(Nc2cc(-c3ccccc3)nc3ccccc23)c1
Ans. > 25%

---

test: Intrinsic cytotoxicity against parental MDCK2 cells incubated for 72 hrs by MTT assay; assay type: cell-based, Canis lupus familiaris, MDCK-II; conditions: dog
Entries and their GI50 at 72 h values follow.
Give just the number in µM; leave the unit off.

# annotated cases, reported GI50 at 72 h shown
| Smiles data | GI50 at 72 h, µM |
| --- | --- |
| CC(=O)Nc1cccc(Nc2nc(-c3ccccc3)nc3ccccc23)c1 | 30.9 |
| O=[N+]([O-])c1cc(Nc2nc(-c3ccccc3)nc3ccccc23)ccc1O | 152 |
| COc1ccc(Nc2nc(-c3ccccc3)nc3ccccc23)cc1OC | 17 |
| Cc1cccc(Nc2nc(-c3ccccc3)nc3ccccc23)c1 | 24 |

Qu. For the compound Oc1ccc(Nc2nc(-c3ccccc3)nc3ccccc23)cc1 , what GI50 at 72 h is on record?
Ans. 26.9

Qu. For the compound Ic1ccc(Nc2nc(-c3ccccc3)nc3ccccc23)cc1 , what GI50 at 72 h is on record?
Ans. 8.85

Qu. For the compound N#Cc1ccc(Nc2nc(-c3ccccc3)nc3ccccc23)cc1 , what GI50 at 72 h is on record?
Ans. 16.6

Qu. For the compound Fc1cccc(Nc2nc(-c3ccccc3)nc3ccccc23)c1 , what GI50 at 72 h is on record?
Ans. 27.5

Qu. For the compound Ic1cccc(Nc2nc(-c3ccccc3)nc3ccccc23)c1 , what GI50 at 72 h is on record?
Ans. 16.6

Qu. For the compound COc1ccc2c3c([nH]c2c1)[C@H](CC(C)C)N1C(=O)[C@H](CCC(=O)OC(C)(C)C)NC(=O)[C@@H]1C3 , what GI50 at 72 h is on record?
Ans. 10.9

Qu. For the compound Clc1ccc(Nc2nc(-c3ccccc3)nc3ccccc23)cc1 , what GI50 at 72 h is on record?
Ans. 14.8

Qu. For the compound Fc1ccc(Nc2nc(-c3ccccc3)nc3ccccc23)cc1 , what GI50 at 72 h is on record?
Ans. 25.6

---

Biological target: Broad substrate specificity ATP-binding cassette transporter ABCG2 (Homo sapiens)
Sequence (Q9UNQ0 whole entry): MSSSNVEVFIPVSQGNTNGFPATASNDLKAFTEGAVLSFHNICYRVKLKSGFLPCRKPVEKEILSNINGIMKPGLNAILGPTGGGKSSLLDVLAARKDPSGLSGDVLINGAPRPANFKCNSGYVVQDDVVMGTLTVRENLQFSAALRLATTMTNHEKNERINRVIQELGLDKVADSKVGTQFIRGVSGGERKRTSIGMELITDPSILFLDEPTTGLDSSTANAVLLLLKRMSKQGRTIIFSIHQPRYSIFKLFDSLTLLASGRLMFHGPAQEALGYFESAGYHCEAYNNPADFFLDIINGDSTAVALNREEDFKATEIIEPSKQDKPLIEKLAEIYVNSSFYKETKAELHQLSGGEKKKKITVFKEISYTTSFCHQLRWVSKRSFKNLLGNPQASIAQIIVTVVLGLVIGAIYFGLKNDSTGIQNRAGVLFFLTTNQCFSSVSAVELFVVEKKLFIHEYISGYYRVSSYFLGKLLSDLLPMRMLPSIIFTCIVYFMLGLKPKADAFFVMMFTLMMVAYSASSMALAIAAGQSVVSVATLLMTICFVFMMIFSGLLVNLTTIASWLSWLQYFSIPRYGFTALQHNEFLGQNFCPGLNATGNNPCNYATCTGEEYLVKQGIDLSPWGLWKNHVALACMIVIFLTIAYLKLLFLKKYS
Test: Inhibition of c-terminal GFP-tagged human ABCG2 expressed in MDCK2 cells preincubated for 30 mins before Hoechst 33342 addition by Hoechst 33342 accumulation assay
Type: cell-based
pIC50: −log10 of the molar value.
Reported property: pIC50

A: CC(=O)Nc1cccc(Nc2cc(-c3ccccc3)nc3ccccc23)c1
B: COc1cc(Nc2nc(-c3ccccc3)nc3ccccc23)ccc1Br
Qu. Which value of pIC50 is greater, the one for A or the one for B ? Refer to your chosen entry by its label in the reply.
Ans. B
(B: 6.54, A: 5.79)

A: Clc1ccc(Nc2nc(-c3ccccc3)nc3ccccc23)cc1
B: Cc1cc(Nc2nc(-c3ccccc3)nc3ccccc23)ccc1I
C: Fc1cccc(Nc2nc(-c3ccccc3)nc3ccccc23)c1
Qu. // sort entries: pIC50, high to low Lab note: final answer is the ordered label list.
Ans. C, A, B
(C: 6.45, A: 6.08, B: 5.84)

A: Cc1cccc(Nc2nc(-c3ccccc3)nc3ccccc23)c1
B: CC(C)(C)OC(=O)c1ccc(Nc2nc(-c3ccccc3)nc3ccccc23)cc1
Qu. Hey, between A and B which has a smaller measured pIC50? Refer to your chosen entry by its label in the reply.
Ans. B

P: Fc1ccc(Nc2nc(-c3ccccc3)nc3ccccc23)cc1
Q: O=[N+]([O-])c1cc(Nc2nc(-c3ccccc3)nc3ccccc23)ccc1O
R: C#Cc1cccc(Nc2nc(-c3ccccc3)nc3ccccc23)c1
Qu. // sort entries: pIC50, high to low Lab note: final answer is the ordered label list.
Ans. Q, R, P

---

system: ABCG2; assay: Therapeutic index, ratio of GI50 for intrinsic cytotoxicity against MDCK2 cells over-expressing human ABCG2 top IC50 for inhibition of c-terminal GFP-tagged human ABCG2 expressed in MDCK2 cells relative to Ko143; assay type: toxicity, cell-based; settings: dog, read-out: TI
Reported property: selectivity ratio
// response body must contain only the number

Qu. Give ABCG2 selectivity ratio for O=[N+]([O-])c1cc(Nc2nc(-c3ccccc3)nc3ccccc23)ccc1O
Ans. 13

---

system: ABCG2; assay: Therapeutic index, ratio of GI50 for intrinsic cytotoxicity against MDCK2 cells over-expressing human ABCG2 top IC50 for inhibition of c-terminal GFP-tagged human ABCG2 expressed in MDCK2 cells; type: toxicity, cell-based; details: dog, read-out: RatioGI50
Entries and their selectivity ratio values follow.
// response body must contain only the number

| Smiles data | selectivity ratio |
| --- | --- |
| Fc1cccc(Nc2nc(-c3ccccc3)nc3ccccc23)c1 | 48.5 |

Qu. For the compound Cc1cccc(Nc2nc(-c3ccccc3)nc3ccccc23)c1 , what selectivity ratio is on record?
Ans. 11.1

Qu. For the compound Oc1ccc(Nc2nc(-c3ccccc3)nc3ccccc23)cc1 , what selectivity ratio is on record?
Ans. 59.8

Qu. For the compound O=[N+]([O-])c1cc(Nc2nc(-c3ccccc3)nc3ccccc23)ccc1O , what selectivity ratio is on record?
Ans. 655
